targetUnderTest: PARP1 wild-type (Homo sapiens, UniProt P09874 1-1014)
Sequence (P09874 whole entry): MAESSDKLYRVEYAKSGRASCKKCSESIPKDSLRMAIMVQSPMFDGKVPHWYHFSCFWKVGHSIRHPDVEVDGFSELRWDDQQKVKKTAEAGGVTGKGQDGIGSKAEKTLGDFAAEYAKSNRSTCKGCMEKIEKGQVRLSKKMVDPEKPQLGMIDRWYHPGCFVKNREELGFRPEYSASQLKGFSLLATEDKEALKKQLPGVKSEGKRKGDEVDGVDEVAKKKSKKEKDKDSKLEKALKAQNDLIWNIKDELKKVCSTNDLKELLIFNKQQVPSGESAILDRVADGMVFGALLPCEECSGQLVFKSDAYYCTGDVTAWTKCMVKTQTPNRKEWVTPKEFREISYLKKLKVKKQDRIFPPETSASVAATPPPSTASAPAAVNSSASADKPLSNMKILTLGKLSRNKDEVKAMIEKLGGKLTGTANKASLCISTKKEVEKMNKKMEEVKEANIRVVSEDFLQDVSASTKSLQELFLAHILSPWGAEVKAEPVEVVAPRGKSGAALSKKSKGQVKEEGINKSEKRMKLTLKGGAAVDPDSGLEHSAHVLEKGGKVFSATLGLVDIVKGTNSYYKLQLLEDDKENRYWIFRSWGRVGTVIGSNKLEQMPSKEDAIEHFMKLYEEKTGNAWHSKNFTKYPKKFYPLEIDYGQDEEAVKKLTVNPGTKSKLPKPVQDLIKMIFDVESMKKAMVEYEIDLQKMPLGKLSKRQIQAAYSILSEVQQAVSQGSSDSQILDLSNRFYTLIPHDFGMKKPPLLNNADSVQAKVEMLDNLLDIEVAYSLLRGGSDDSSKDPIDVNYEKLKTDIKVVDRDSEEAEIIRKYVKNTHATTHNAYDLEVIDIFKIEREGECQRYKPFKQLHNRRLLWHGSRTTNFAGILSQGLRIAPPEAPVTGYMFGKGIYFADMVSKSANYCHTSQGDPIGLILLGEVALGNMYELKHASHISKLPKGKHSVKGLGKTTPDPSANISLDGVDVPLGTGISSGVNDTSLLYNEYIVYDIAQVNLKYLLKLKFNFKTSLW
protocolDescription: stopped-flow fluorescence anisotropy; K1, first DNA; kinetically derived; 50 mM Tris-HCl pH 7.5, 50 mM NaCl, 1 mM MgCl2, 0.1 mM EDTA, 0.01% IGEPAL; 20 °C (stated for association)
conditionSet: protein: recombinant; tags: His tag (Ni-NTA, pET28a); blunt
assayReadout: Kd

Sample p18mer* (dsDNA, 5'-phosphate) DNA 1: GGGTTGCGGCCGCTTGGG DNA 2: CCCAAGCGGCCGCAACCC — what was its Kd? < 3.2 nM
